assay.target: Gcr1 (UniProt P07261)
Sequence: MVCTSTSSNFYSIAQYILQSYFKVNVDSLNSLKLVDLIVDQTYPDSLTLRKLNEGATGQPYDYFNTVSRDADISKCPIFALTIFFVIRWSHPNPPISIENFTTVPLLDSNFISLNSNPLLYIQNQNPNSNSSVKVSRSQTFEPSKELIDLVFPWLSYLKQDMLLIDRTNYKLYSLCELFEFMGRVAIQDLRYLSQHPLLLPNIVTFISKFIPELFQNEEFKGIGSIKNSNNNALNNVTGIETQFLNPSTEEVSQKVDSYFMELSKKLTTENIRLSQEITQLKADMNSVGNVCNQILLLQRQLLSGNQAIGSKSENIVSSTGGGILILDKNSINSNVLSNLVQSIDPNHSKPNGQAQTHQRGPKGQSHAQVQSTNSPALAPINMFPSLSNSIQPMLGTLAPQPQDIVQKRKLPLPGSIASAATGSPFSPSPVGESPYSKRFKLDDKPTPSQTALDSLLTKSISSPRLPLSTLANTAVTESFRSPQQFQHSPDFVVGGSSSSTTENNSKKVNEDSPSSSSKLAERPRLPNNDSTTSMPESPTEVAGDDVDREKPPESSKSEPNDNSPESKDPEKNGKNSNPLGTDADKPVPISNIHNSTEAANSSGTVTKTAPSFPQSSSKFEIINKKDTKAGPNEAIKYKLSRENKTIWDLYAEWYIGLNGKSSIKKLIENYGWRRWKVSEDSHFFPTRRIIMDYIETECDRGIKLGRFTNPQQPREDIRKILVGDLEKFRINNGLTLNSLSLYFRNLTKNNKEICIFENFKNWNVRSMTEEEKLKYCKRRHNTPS
assay.method.text: PBM E-score (8-mer binding enrichment) (E-score (-0.5 to 0.5)); higher = stronger / more preferred TF binding
recorded.conditions: protein concentration: 100 nM; construct: GST-full length
In all, about 33,000 sequences were measured (“E-score (-0.5 to 0.5)”: median about -0.011, highest 2% from about 0.28 on). Many of the other results were omitted from the sample, so the highest values are more common in it than they were.
Reported PBM E-score values for the following sequences.
Please give only the number in your answer, with no unit.

Would you please look over these solved cases?
In [3]: df
Out[3]:
   sequence_content           assay_target  reading
0          CCTGCGTA  Gcr1 (UniProt P07261)   0.0119
1          GCAGATAC  Gcr1 (UniProt P07261)   0.0819
2          GCTGCGTA  Gcr1 (UniProt P07261)    0.286
3          CGCACCCG  Gcr1 (UniProt P07261)   0.0194
4          GAGCGTGC  Gcr1 (UniProt P07261)     -0.1
5          AGCTTCCC  Gcr1 (UniProt P07261)    0.378
6          AAGATGCT  Gcr1 (UniProt P07261)    0.288
7          GGTGGGAA  Gcr1 (UniProt P07261)   0.0991
8          AGGCTGCG  Gcr1 (UniProt P07261)    0.138
9          CAGATAGA  Gcr1 (UniProt P07261)   0.0277

Lookup result for `ACAGATTC` ; measured PBM E-score: 0.176

Lookup result for `AATCGGGC` ; measured PBM E-score: 0.114
